Hello, the source for this data is the supplement of paper PMC9112550, in case you need it.

tested on: Escherichia coli TOP10; assay: shrunken log2 fold change of peptide-encoding DNA abundance (4.5 h post-induction vs induction); higher = less antimicrobial activity (less host growth inhibition); settings: time post-induction: 4.5 h; library: site-saturation at positions 5, 18, 19, 20;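 note: peptides expressed intracellularly from a pBAD plasmid library in pooled LB shake-flask culture, induced with 0.3% L-arabinose, DNA abundance read by NGS, three biological replicates, DESeq2 with apeglm shrinkage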
Documented shrunken log2 fold change across a set of sequences
Give a plain numeric answer without units written out.

Consider the following illustrative entries.
RRIRFRPPRLPRPRPRPTRCPRP :: 0.299
RRIRDRPPRLPRPRPRPDGLPRP :: 0.107
RRIRYRPPRLPRPRPRPHVIPRP :: -0.448

Request: Any idea what its shrunken log2 fold change is? The sequence is `RRIRARPPRLPRPRPRPGYFPRP`
Response: 0.212
